Target: T1, human VPAC2 receptor (human, UniProt P41587 24-438)
T1 sequence (looked up): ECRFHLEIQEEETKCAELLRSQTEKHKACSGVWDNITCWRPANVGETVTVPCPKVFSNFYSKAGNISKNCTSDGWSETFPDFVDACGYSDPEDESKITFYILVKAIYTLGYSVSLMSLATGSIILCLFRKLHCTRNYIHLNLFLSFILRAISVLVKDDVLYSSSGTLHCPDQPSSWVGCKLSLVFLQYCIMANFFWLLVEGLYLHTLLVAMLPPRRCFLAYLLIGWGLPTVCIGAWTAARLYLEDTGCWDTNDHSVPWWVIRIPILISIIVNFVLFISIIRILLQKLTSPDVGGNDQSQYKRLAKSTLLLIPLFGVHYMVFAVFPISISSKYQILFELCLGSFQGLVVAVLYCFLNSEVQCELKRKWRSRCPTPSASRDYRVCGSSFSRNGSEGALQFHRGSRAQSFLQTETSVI
Test: cell-based or functional assay
Where no end group is shown, it is not given here. [ ]: non-standard residue; d: D form. The star is where a group is joined. NMeA = CN[C@@H](C)C(=O)O; Orn = NCCC[C@H](N)C(=O)O; Hexanoyl = CCCCCC(=O)*; Aib = CC(C)(N)C(=O)O
EC50 cAMP, Alpha Screen by entry:
endpoint: EC50 cAMP, Alpha Screen (nM)

> print(dat)
                                     binder                 endpoint  readout.units  number
1  HSDAVFTDNYTXLRXQLAAXKYLQSIXNXGGPSSGAPPPS (N-terminal hexanoyl (C6); Orn at 12, 27, 29; Aib at 15, 20) [P364]  EC50 cAMP, Alpha Screen             nM    0.11
2  Hexanoyl-HSD[NMeA]VFTDNYTRLRKQVAAKKYLQSIKNKRYGGPSSGAPPPS [P208]  EC50 cAMP, Alpha Screen             nM    50.1
3  Hexanoyl-HSD[Aib]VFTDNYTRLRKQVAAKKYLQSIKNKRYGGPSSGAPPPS (ends and bridges not checked) [P209]  EC50 cAMP, Alpha Screen             nM     0.1
4  Hexanoyl-HSDAVFTDNYTRLR[Aib]QLAAK[Aib]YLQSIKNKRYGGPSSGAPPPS (ends and bridges not checked) [P284]  EC50 cAMP, Alpha Screen             nM    0.18
5  Hexanoyl-HSDAVFTDNYTRLR[Aib]QVAA[Aib][Orn]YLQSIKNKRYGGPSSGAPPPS (ends and bridges not checked) [P342]  EC50 cAMP, Alpha Screen             nM    0.21
